Source listed as patent US20150105316A1.

Target: T1, human angiotensin 2 type 1 receptor (human, UniProt P30556 1-359)
T1 sequence (looked up): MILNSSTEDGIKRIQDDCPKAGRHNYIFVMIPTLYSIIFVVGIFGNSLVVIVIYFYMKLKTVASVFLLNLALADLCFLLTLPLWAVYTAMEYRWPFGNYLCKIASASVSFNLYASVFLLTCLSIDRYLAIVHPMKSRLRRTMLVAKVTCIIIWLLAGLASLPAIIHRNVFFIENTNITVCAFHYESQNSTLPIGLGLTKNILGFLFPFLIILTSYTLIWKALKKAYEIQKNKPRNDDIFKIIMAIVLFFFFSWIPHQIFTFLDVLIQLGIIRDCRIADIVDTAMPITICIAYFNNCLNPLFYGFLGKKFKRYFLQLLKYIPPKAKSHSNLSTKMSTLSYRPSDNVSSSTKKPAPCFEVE
Experiment: cell-based or functional assay
Where no end group is shown, it is not given here. [ ]: non-standard residue; d: D form. Ac6c = NC1(C(=O)O)CCCCC1; Sar = CNCC(=O)O
QUANTITY: beta-arrestin2 assay EC50

BINDER: [Sar]RV[dC]IHC[dA] (not fully specified; printed as Sar-Arg-Val-D-Cys-Ile-His-Cys-D-Ala; cysteine pairing not given here) [SEQ ID NO: 52 (Sar-Arg-Val-D-Cys-Ile-His-Cys-D-Ala)]
QUANTITY: beta-arrestin2 assay EC50
VAL: > 3.2 nM

BINDER: [Sar]RVY[Ac6c]HPH [SEQ ID NO: 37 (Sar-Arg-Val-Tyr-cyHex-His-Pro-His)]
QUANTITY: beta-arrestin2 assay EC50
VAL: > 3.2 nM

Now let's try a different one.
[in] So what does the record say about beta-arrestin2 assay EC50 for [Sar]RVY[Ac6c]HPL [SEQ ID NO: 12 (Sar-Arg-Val-Tyr-cyHex-His-Pro-Leu)] ?
[out] > 3.2 nM
